Recorded Population Mitochondria Different-Phenotype (%), one value per entry.
# System: U2OS
# assayRemarks: Multiplex assay against U2OS
# Format: toxicity, cell-based
# statedConditions: human, 24 h, 1 µM, compound concentration 1 uM, replicate 1
quantityKind: Population Mitochondria Different-Phenotype (%)

* CN1CCN(c2cc(-c3ccccc3)nc(N)n2)CC1 | 1
* Br.CS(=O)(=O)Nc1c(O)ccc2c1CCCC2C1=NCCN1 (configuration not stated) | 2
* Cc1cnc(-c2cc(N3CCN(C(=O)CCS(C)(=O)=O)CC3)ncc2Cl)c(C)c1 | 3
* CCCOc1ccc2[nH]cc(C3=CCNCC3)c2n1.Cl | 1
* Cl.N=C(N)NC(=O)Cc1c(Cl)cccc1Cl [GUANFACINE HYDROCHLORIDE] | 3
* CCCCC(=O)N(Cc1ccc(-c2ccccc2-c2nnn[nH]2)cc1)[C@H](C(=O)O)C(C)C | 3
* CC(=O)Nc1cccc2c1c(Sc1ccc(Cl)cc1)c(C)n2CC(=O)O | 1
* Cc1cccc(NC(=O)CN2CCC(c3ccccn3)CC2)c1.Cl.Cl | 3
* O=C(CCCc1ccccc1)Nc1nc2ccccc2c(=O)s1 | 2
* CC(/C=C1\SC(=S)N(CCCC(=O)Nc2ccc(C(=O)O)c(O)c2)C1=O)=C\c1ccccc1 | 1
* N#Cc1c(Oc2cccc(OS(=O)(=O)CCCC(F)(F)F)c2)cccc1C(F)(F)F | 2
* CN(C)C(=O)Cn1cc(-c2ccc(-c3cncc4ccccc34)cc2)cn1 | 2

* * *

# System: Fibroblast
# assayRemarks: Multiplex assay against human fibroblast
# Assay type: toxicity, cell-based
# statedConditions: 12 h, 1 µM, compound concentration 1 uM, replicate 2
Please note: Total Cell Count exactly at 100 is 0 (no). Only values below 100 get 1 (yes).

• O=C(NCCN1CCC(n2c(=O)[nH]c3cc(Cl)ccc32)CC1)c1ccc(F)cc1 [HALOPEMIDE] = 1 (yes)
• CC(C)(C)c1cc(NC(=O)Nc2ccc(-c3cn4c(n3)sc3cc(OCCN5CCOCC5)ccc34)cc2)no1 = 0 (no)
• CN(C)C(=O)Cn1cc(-c2ccc(-c3cncc4ccccc34)cc2)cn1 = 0 (no)
• Cl.NCCc1ccc(O)c(O)c1 [DOPAMINE HYDROCHLORIDE] = 0 (no)

* * *

# System: U2OS
# assayRemarks: Multiplex assay against U2OS
# Type: toxicity, cell-based
# statedConditions: human, 48 h, 1 µM, compound concentration 1 uM, replicate 2
Recorded Population Pyknosed Nuclei (%), one value per entry.
quantityKind: Population Pyknosed Nuclei (%)

- Cc1cnc(-c2cc(N3CCN(C(=O)CCS(C)(=O)=O)CC3)ncc2Cl)c(C)c1: 10
- Cc1onc(-c2ccccc2Cl)c1C(=O)N(C)c1ccc(Cl)cc1: 11
- CCCOc1ccc2[nH]cc(C3=CCNCC3)c2n1.Cl: 6
- O=C(NCCN1CCC(n2c(=O)[nH]c3cc(Cl)ccc32)CC1)c1ccc(F)cc1 [HALOPEMIDE]: 12
- CCCCC(=O)N(Cc1ccc(-c2ccccc2-c2nnn[nH]2)cc1)[C@H](C(=O)O)C(C)C: 10

* * *

# System: HEK-293T
# assayRemarks: Multiplex assay against HEK293T
# Assay type: toxicity, cell-based
# statedConditions: human, 24 h, 1 µM, compound concentration 1 uM, replicate 1
quantityKind: Population Tubulin-Different-Phenotype (%)

- Cc1cccc(NC(=O)CN2CCC(c3ccccn3)CC2)c1.Cl.Cl: 22
- CCc1cc2cc(NS(=O)(=O)c3ccc(C#N)cc3)ccc2n(CC)c1=O: 18
- N#Cc1c(Oc2cccc(OS(=O)(=O)CCCC(F)(F)F)c2)cccc1C(F)(F)F: 26
- CCCCCC(O)/C=C/[C@H]1C(=O)CC(O)C1C/C=C\CCCC(=O)O (some centres undefined): 11
- Br.CS(=O)(=O)Nc1c(O)ccc2c1CCCC2C1=NCCN1 (centres undefined): 21
- N#Cc1cc(F)cc(-c2nc(-c3ccc(F)cn3)no2)c1: 12
- CCCOc1ccc2[nH]cc(C3=CCNCC3)c2n1.Cl: 24
- CC(/C=C1\SC(=S)N(CCCC(=O)Nc2ccc(C(=O)O)c(O)c2)C1=O)=C\c1ccccc1: 26
- Cc1c(CC(=O)O)c2cccnc2n1Cc1ccc(S(C)(=O)=O)cc1C(F)(F)F: 18
- CCCCC(=O)N(Cc1ccc(-c2ccccc2-c2nnn[nH]2)cc1)[C@H](C(=O)O)C(C)C: 12
- CN(C)C(=O)Cn1cc(-c2ccc(-c3cncc4ccccc34)cc2)cn1: 24
- Cl.N=C(N)NC(=O)Cc1c(Cl)cccc1Cl [GUANFACINE HYDROCHLORIDE]: 21
- NCCc1cn(S(=O)(=O)c2c(Cl)nc3sccn23)c2ccccc12.O=C(O)C(=O)O: 26
- CN1CCN(c2cc(-c3ccccc3)nc(N)n2)CC1: 12
- CC(C)c1noc(N2CCC(COc3ccc(-c4ccc(S(C)(=O)=O)cc4)nc3)CC2)n1: 25
- Cc1noc(-c2ccc(-c3ccc(CC(=O)O)cc3)cc2)c1NC(=O)O[C@H](C)c1ccccc1Cl: 17
- Cc1sc2c(c1C)C(c1ccc(Cl)cc1)=N[C@@H](CC(=O)NCCCCCCCCNC(=O)COc1cccc3c1C(=O)N(C1CCC(=O)NC1=O)C3=O)c1nnc(C)n1-2 (some centres undefined): 22
- O=C1[C@H](Cc2ccc(O)cc2)N2C(=O)CCN(C(=O)NCc3ccccc3)[C@H]2CN1Cc1cccc2ccccc12: 38
- C[C@H](N)COC(=O)[C@@H](CCCCN)NC(=O)Cc1c(-c2ccc3ccccc3c2)[nH]c2c1ccc1ccccc12: 19

* * *

Recorded Total Cell Count, one value per entry.
# Tested on: HEK-293T
# assayRemarks: Multiplex assay against HEK293T
# Assay type: toxicity, cell-based
# statedConditions: human, 48 h, 1 µM, compound concentration 1 uM, replicate 2
quantityKind: Total Cell Count

• CC(C)COc1ccc(CNC(=O)N(Cc2ccc(F)cc2)C2CCN(C)CC2)cc1 = 601
• COc1cccc2c1c(NS(=O)(=O)c1ccc(Cl)s1)nn2Cc1cccc(CNC(=O)C(C)(C)O)c1 = 591
• Cc1cnc(-c2cc(N3CCN(C(=O)CCS(C)(=O)=O)CC3)ncc2Cl)c(C)c1 = 595

* * *

# System: U2OS
# assayRemarks: Multiplex assay against U2OS
# Assay type: toxicity, cell-based
# statedConditions: human, 48 h, 1 µM, compound concentration 1 uM, replicate 2
Recorded Population Apoptotic (%), one value per entry.
quantityKind: Population Apoptotic (%)

- CC[C@@H](C)Nc1nc(C)nc2c(-c3ccc(OC)nc3C)c(C)nn12: 91
- CC(C)c1noc(N2CCC(COc3ccc(-c4ccc(S(C)(=O)=O)cc4)nc3)CC2)n1: 90
- CC(/C=C1\SC(=S)N(CCCC(=O)Nc2ccc(C(=O)O)c(O)c2)C1=O)=C\c1ccccc1: 78
- Cc1sc2c(c1C)C(c1ccc(Cl)cc1)=N[C@@H](CC(=O)NCCCCCCCCNC(=O)COc1cccc3c1C(=O)N(C1CCC(=O)NC1=O)C3=O)c1nnc(C)n1-2 (some centres not stated): 90
- Cc1c(CC(=O)O)c2cccnc2n1Cc1ccc(S(C)(=O)=O)cc1C(F)(F)F: 90
- Br.CS(=O)(=O)Nc1c(O)ccc2c1CCCC2C1=NCCN1 (configuration not stated): 81
- CC(=O)Nc1cccc2c1c(Sc1ccc(Cl)cc1)c(C)n2CC(=O)O: 81
- CC(C)COc1ccc(CNC(=O)N(Cc2ccc(F)cc2)C2CCN(C)CC2)cc1: 92
- CN[C@@H](C)C(=O)N[C@H](C(=O)N1CCC[C@H]1C(=O)Nc1snnc1-c1ccccc1)C1CCCCC1: 88
- Cl.N=C(N)NC(=O)Cc1c(Cl)cccc1Cl [GUANFACINE HYDROCHLORIDE]: 90
- CCc1cc2cc(NS(=O)(=O)c3ccc(C#N)cc3)ccc2n(CC)c1=O: 84
- CN(C)C(=O)Cn1cc(-c2ccc(-c3cncc4ccccc34)cc2)cn1: 88
- N#Cc1cc(F)cc(-c2nc(-c3ccc(F)cn3)no2)c1: 100
- Cl.NCCc1ccc(O)c(O)c1 [DOPAMINE HYDROCHLORIDE]: 89
- NCCc1cn(S(=O)(=O)c2c(Cl)nc3sccn23)c2ccccc12.O=C(O)C(=O)O: 85
- O=C(NCCN1CCC(n2c(=O)[nH]c3cc(Cl)ccc32)CC1)c1ccc(F)cc1 [HALOPEMIDE]: 95
- Cc1onc(-c2ccccc2Cl)c1C(=O)N(C)c1ccc(Cl)cc1: 89

* * *

# Tested on: U2OS
# assayRemarks: Multiplex assay against U2OS
# Type: toxicity, cell-based
# statedConditions: human, 24 h, 10 µM, compound concentration 10 uM, replicate 1
quantityKind: Population Hoechst High Intensity Objects (%)

• N#Cc1cc(F)cc(-c2nc(-c3ccc(F)cn3)no2)c1 = 1
• COc1ccccc1N1CCN(C[C@@H](C(=O)NC(C)(C)C)c2ccccc2)CC1.Cl.Cl = 5
• Cc1noc(-c2ccc(-c3ccc(CC(=O)O)cc3)cc2)c1NC(=O)O[C@H](C)c1ccccc1Cl = 1
